Just for reference, PubChem BioAssay (NCI) is where these values come from.

test system: UO-31 renal; assay: NCI tumour cell line growth inhibition, 48 h
quantity: TGI (µM)
Write the value in µM as a bare number.

Hello, I am looking for reported TGI with UO-31 renal for CCN(Cc1ccc(C)cc1)c1ccc(CO)c(Cl)c1 . Could you help?
17.7

Hello, I am looking for reported TGI with UO-31 renal for Cc1nc(-n2nc(-c3ccccc3)cc2-c2ccccc2)sc1C(=O)/C=C/c1ccc(/C=C/C(=O)c2sc(-n3nc(-c4ccccc4)cc3-c3ccccc3)nc2C)cc1 . Could you help?
42

Hello, I am looking for reported TGI with UO-31 renal for CCCCCCCCCCCCCCCCCc1cccc(OCOCCOC)c1C(=O)O . Could you help?
31.7

###

Give measured TGI for each item. Keep answers brief.
tested on: SK-MEL-2 melanoma; assay: NCI tumour cell line growth inhibition, 48 h

Sample Cc1cc(S(=O)(=O)Nc2n[nH]c(Nc3ccc(Cl)cc3)n2)c(S)cc1Cl — what was its TGI?
> 100 µM

Sample CC(=O)C(=[N+]=[N-])C(=O)N1CCOC1=O — what was its TGI?
> 10 µM

Sample CN1c2ccccc2N(C(=O)c2ccc([N+](=O)[O-])cc2)C(CC(=O)O)c2cccn21 (stereo not given) — what was its TGI?
> 100 µM

Sample CC(C)(O)/C=C\P(=O)(O)O — what was its TGI?
> 100 µM

Sample C#C[C@]1(O)CC[C@H]2[C@@H]3CCC4=C/C(=N/OCCN(C)C)CC[C@]4(C)[C@H]3CC[C@@]21C — what was its TGI?
> 100 µM

###

system: COLO 205 colon; experiment: NCI tumour cell line growth inhibition, 48 h
quantity: TGI

Sample Cc1ccc(S(=O)(=O)OCCn2cnc3nc(NC(=O)c4ccccc4)[nH]c(=O)c32)cc1 — what was its TGI?
> 100 µM

Sample CCOC(=O)c1cc(C(=O)c2cc(OC)c(OC)c(OC)c2)n2ncccc12 — what was its TGI?
1.33 µM

Sample COC(=O)C(Cc1cc(OC)c(OC)c(OC)c1)C(=O)OC — what was its TGI?
> 320 µM

Sample C=CCn1c(-c2ccc([N+](=O)[O-])cc2)cs/c1=N\C(P(=O)(O)O)P(=O)(O)O — what was its TGI?
> 100 µM

Sample N.N.N.N.N.[Co+3].[I-].[N-]=[N+]=[N-] — what was its TGI?
> 100 µM

Sample CC(=O)C(=[N+]=[N-])C(=O)N1CCOC1=O — what was its TGI?
> 10 µM

Sample COc1ccc2nc3c(C(=O)NCCN(C)C)cccc3cc2c1 — what was its TGI?
3.74 µM

Sample COc1cc(Nc2nc3cc(N)cc(N)c3nc2-c2ccccc2)cc(OC)c1OC — what was its TGI?
27.1 µM

Sample COc1ccc(C2N(c3ccc(F)cc3)C(=O)N3C(c4ccc(OC)cc4)N(c4ccc(F)cc4)C(=O)N23)cc1 (stereo not drawn) — what was its TGI?
> 100 µM

Sample O=c1ccn(CC2(CO)CCC2)c(=O)[nH]1 — what was its TGI?
> 100 µM

Sample COc1ccc(C(c2cc(OC)c(OC)c(OC)c2)n2ccnc2)cc1O (stereo not drawn) — what was its TGI?
1.77 µM

Sample COCCNCc1ccc(-c2cc3nccc(Oc4ccc(NC(=S)NC(=O)Cc5ccc(F)cc5)cc4F)c3s2)nc1 — what was its TGI?
4.3 µM

Sample Cc1cc(S(=O)(=O)Nc2n[nH]c(Nc3ccc(Cl)cc3)n2)c(S)cc1Cl — what was its TGI?
> 100 µM

Sample OC(c1ccc(F)cc1)C(F)(F)c1nc2ccccc2o1 (stereo not drawn) — what was its TGI?
> 100 µM

Sample O=c1[nH]c2ccccc2c(=O)n1/N=C/c1ccc(O)cc1 — what was its TGI?
> 100 µM

Sample N#Cc1nc(CCN2C(=O)c3ccccc3C2=O)oc1N — what was its TGI?
> 100 µM

Sample N#Cc1c(-c2ccc(Cl)c(Cl)c2)c(-c2ccc(Cl)c(Cl)c2)nn(CC(=O)O)c1=O — what was its TGI?
> 100 µM

Sample COC(=O)c1n[nH]c(C)c1N=NN(C)CCC#N — what was its TGI?
26.9 µM

Sample CCCCCCCCCCCCOC1C(CNC(=O)C2OC3OC(C)(C)OC3C2NC(=O)Nc2ccc(CC(=O)OC)cc2)OC2OC(C)(C)OC21 (stereo not drawn) — what was its TGI?
> 100 µM

Sample Cn1c(=O)[nH]c2nncnc2c1=O — what was its TGI?
501 µM

Sample Cn1c2c(c3ccccc31)CCN(CCCCN1CCCCC1)C2=O — what was its TGI?
> 100 µM

Sample OCc1cn(C(c2ccccc2)(c2ccccc2)c2ccccc2)cn1 — what was its TGI?
> 100 µM

Sample CCOC(=O)c1c(N)n(-c2ccccc2)c(=O)n(-c2ccccc2)c1=O — what was its TGI?
> 100 µM
